# Tested on: T. vaginalis
# test.description: Trichomonas resorufin assay
# Format: cell-based
# experimental.setup: SI, IC50 (μM)/IC50 (μM); HEK293 cytotoxicity; Alkyl Amidines and NH Pyrroles
endpoint.name: T. vaginalis Selectivity Indices, Group

Record excerpt, results attached:
[[record]]
compound = "Cn1cc(NC(=O)c2cc(NC(=O)c3ccc(/C=C/c4ccc(C(F)(F)F)cc4)cc3)cn2C)cc1C(=O)NCCC(=N)N [Ref-6, reference compound]"
endpoint_name = "T. vaginalis Selectivity Indices, Group"
reported_result = "A (Group A: SI < 8)"

[[record]]
compound = "CC/N=C(\\N)CCNC(=O)c1cc(NC(=O)c2cc(NC(=O)c3ccc(/C=C/c4cnc5ccccc5c4)cc3)cn2C)cn1C [Ia14]"
endpoint_name = "T. vaginalis Selectivity Indices, Group"
reported_result = "D (Group D: SI > 32)"

[[record]]
compound = "CN(C)CCNC(=O)c1cc(NC(=O)c2cc(NC(=O)c3ccc(/C=C/c4cnc5ccccc5c4)cc3)cn2C)cn1C [Ref-7, reference compound]"
endpoint_name = "T. vaginalis Selectivity Indices, Group"
reported_result = "A (Group A: SI < 8)"

[[record]]
compound = "COc1ccc(/C=C/c2ccc(C(=O)Nc3cc(C(=O)Nc4cc(C(=O)NCCN5CCOCC5)n(C)c4)n(C)c3)cn2)cc1 [Ref-2, reference compound]"
endpoint_name = "T. vaginalis Selectivity Indices, Group"
reported_result = "A (Group A: SI < 8)"

[[record]]
compound = "COc1cccc(/C=C/c2ccc(C(=O)Nc3cc(C(=O)Nc4cc(C(=O)NCCN5CCOCC5)n(C)c4)n(C)c3)cc2)c1 [Ref-1, reference compound]"
endpoint_name = "T. vaginalis Selectivity Indices, Group"
reported_result = "A (Group A: SI < 8)"

[[record]]
compound = "CC(C)NC(=N)CCNC(=O)c1cc(NC(=O)c2cc(NC(=O)c3ccc(/C=C/c4cnc5ccccc5c4)cc3)cn2C)cn1C [Ia21]"
endpoint_name = "T. vaginalis Selectivity Indices, Group"
reported_result = "D (Group D: SI > 32)"

[[record]]
compound = "COc1cccc(/C=C/c2ccc(C(=O)Nc3cc(C(=O)Nc4cc(C(=O)NCCC(=N)N)n(C)c4)n(C)c3)cc2)c1 [Ref-5, reference compound]"
endpoint_name = "T. vaginalis Selectivity Indices, Group"
reported_result = "A (Group A: SI < 8)"

[[record]]
compound = "Cn1cc(NC(=O)c2cc(NC(=O)c3ccc(/C=C/c4cnc5ccccc5c4)cc3)cn2C)cc1C(=O)NCCN1CCOCC1 [Ref-3, reference compound]"
endpoint_name = "T. vaginalis Selectivity Indices, Group"
reported_result = "A (Group A: SI < 8)"


Give T. vaginalis T. vaginalis Selectivity Indices, Group for CCNC(=N)CCNC(=O)c1cc(NC(=O)c2cc(NC(=O)c3ccc(/C=C/c4ccc(OC)cc4)nc3)cn2C)cn1C [Ia24]
D (Group D: SI > 32)

Data credit: patent US20250313546A1
